Tested on: A498 renal
assayRemarks: NCI tumour cell line growth inhibition, 48 h; in the data active = GI50 below about 0.43 µM; inactive = the rest
Outcome codes: True for active, False for inactive

O=C(Nc1ccc(F)cc1)c1cc(S(=O)(=O)Nc2nc3ccccc3o2)c(SCc2ccccc2)cc1Cl | False
CSc1ccc2c(c1)C(=O)c1c-2n(CCCBr)c(=O)c2cc([N+](=O)[O-])ccc12 | False
N#CC1=C(N)Oc2cc(O)ccc2C1c1cccc2ccccc12 (centres undefined) | False
O=S(=O)(Nc1ccc(F)cc1F)c1ccc(-c2cnc(C3CC3)o2)cc1 | True

----------
Catalogue of log10 TGI values
System: SK-MEL-5 melanoma
assayRemarks: NCI tumour cell line growth inhibition, 48 h
observable: log10 TGI (log10 of the value in µM)

Cc1cc(C)c(C(=O)c2nnc3ccccc3c2N)c(C)c1 | 1.43
Oc1cc(O)cc(-c2nc3cc(F)ccc3s2)c1 | 1.57
COc1ccc(-n2c(C)cc(-c3ccccc3)c2C)cc1 | 0.69
CCOC(=O)c1c(NC(=O)c2cccc(C(F)(F)F)c2)sc2c(CN(C)C)c(O)ccc12 | 0.76
CN(CCO)c1ccc(N2Cc3ccccc3OC3=C2C(=O)c2c(O)ccc(O)c2C3=O)cn1 | -0.14
O=C(O)c1nc2ccc(C(F)(F)F)cc2nc1NCc1ccc(F)cc1 | 1.55
COc1cc2c(c(OC)c1OC)-c1ncc3cc4c(cc3c1C2)OCO4 | 1.56
CCN1CCC(O)(/C=C/c2ccc(C)cc2)C(C(=O)/C=C/c2ccc(C)cc2)C1 (stereo unspecified) | 0.99
Ic1cccc(/C=C/CN2CCN(CCOC(c3ccccc3)c3ccccc3)CC2)c1 | 1.51
COC(=O)[C@H](Cc1c[nH]c2ccccc12)NC(=O)c1ccc(CNC(=O)/C(C)=C/c2ccccc2)cc1 | 1.52
O=C1NC(=O)/C(=C\c2ccccc2)C2=C1CCCC2 | 0.55
C/C(=N/NC(=S)Nc1ccc(Cl)cc1)c1cccc(/C(C)=N\NC(=S)Nc2ccc(Cl)cc2)n1 | 1.27
